From: ChEMBL document CHEMBL1201862

Tested on: KM12
Assay: NCI tumour cell line growth inhibition, 48 h
Active and inactive are the calls of the source. No stated cut-off is given here; in the data, active = GI50 up to about 1.1 µM and inactive = higher. Where a SMILES comes first, the peptide text is derived from it. The star is where a group is joined. Boc = CC(C)(C)OC(=O)*
Labels: active, inactive

* S=C(N/N=C/c1ccccn1)Nc1ccc(Cl)cc1 | active
* O=C(NCCNCCO)N/N=C/c1ccccc1 | inactive
* O=C(Nc1cc(Cl)c(Cl)cc1Cl)C(=O)C1C=CCS1(=O)=O (stereo unspecified) | inactive
* Cc1ccc(C)c2sc3cc(=O)ccc-3nc12 | inactive
* CN(C(=O)c1ccc2c(c1)sc1c(=O)n(C)c3ccccc3c12)c1ccccc1 | inactive
* COC(=O)C1C=CCC2CCCCC21N1CCCC1 (stereo unspecified) | inactive
* c1cc(CNCCN2CCNCC2)ccn1 | inactive
* NC(=S)N1N=C(c2ccc3c(c2)CCC3)CC1c1ccccc1 (stereo unspecified) | inactive
* CCCCC(=O)c1c(O)ccc2c(C)cc(=O)oc12 | inactive
* COc1cccc(C2c3cc4c(cc3OC(N3CCCC3)C2C)OCO4)c1OC (stereo unspecified) | inactive
* COC1(OC)CC2C(=O)N(Cc3ccccc3)C1CC2S(=O)(=O)c1ccccc1 (stereo unspecified) | inactive
* CC(NC(=O)C(NC(=O)OC(C)(C)C)C(C)C)C(=O)NCC(=O)O (stereo not drawn) (Boc-Val-Ala-Gly-OH; configuration not given here) | inactive
* N#Cc1c2ccc([N+](=O)[O-])cc2c(=O)n2c1[nH]c1ccc(C(F)(F)F)cc12 | inactive
* CC(C)=CC(=O)c1[nH]c2ccccc2c1CC(=O)NCCc1cncn1C | inactive
* Cc1ccc(NC(=S)SCCC(=O)O)cc1 | inactive
* O=C(NC1C=Nc2ccccc2NC1=O)c1ccccc1Cl (stereo unspecified) | inactive
* O=C1C(Cl)=C(NCCCN2CCOCC2)C(=O)c2c(O)ccc(O)c21 | inactive
* CSc1ccc(NC(=O)CCl)cc1 | inactive
* CC(=O)[C@]12OC(=O)C3=C1[C@H](CC[C@@H]3C)[C@@H](C)C[C@H]2C=C(C)C | inactive
* COc1ccccc1NC(=O)C(=O)Cc1cnc2ccccc2n1 | inactive
* C=C1C(=O)C2=C[C@H]1C[C@H](O)C(=O)[C@]1(C)CCCC(C)(C)[C@H]1C[C@H]2O | inactive
* COc1ccc(-c2c(C#N)c(=O)nc(SC)n2C2OCC(OC(C)=O)C(OC(C)=O)C2OC(C)=O)cc1 (stereo unspecified) | inactive
* O=S1(=O)OCCOS(=O)(=O)C1(Cl)Cl | inactive
* N#CC(NNC(=O)Cc1ccccc1)c1ccc(O)cc1 (stereo unspecified) | inactive
* CC(Oc1ccc(Cl)cc1Cl)C(=O)NN1C(=O)CSC1c1ccc(Cl)cc1 (stereo unspecified) | inactive
* C#CCN(C(=O)C(F)(F)F)c1ccc(C(=O)c2ccc(N(CC#C)C(=O)C(F)(F)F)cc2)cc1 | inactive
* N/C(=N\O)NCCN1CCCCCCC1 | inactive
* CC(C)NC(C)Cc1ccccc1 (stereo unspecified) | inactive
* CS/C(=N\Nc1cnc2ccccc2n1)NS(=O)(=O)c1cc(C)c(Cl)cc1Cl | inactive
* CC(OC(=O)C(CC(=O)OC(C)(C)C)NC(=O)OC(C)(C)C)C(=O)OCc1ccccc1 (stereo unspecified) | inactive
* COc1c2c(c(O)c3c4c(c(C)cc13)C1OC3(C(OC)OC5CC(C)(O)C(OC6CC(C)(O)C(O)C(C)O6)C(C)O5)OC1C(OC)(O4)C31CO1)C(=O)C(O)CC2OC1CC(C)(O)C(OC(C)=O)C(C)O1 (stereo unspecified) | active
* C(/C=N/c1ccccc1)=C(/Nc1ccccc1)C12CC3CC(CC(C3)C1)C2 | inactive
* Cc1c2cc[n+](C)cc2c(C)c2c1[nH]c1ccc(O)cc12 [ELLIPTINIUM ACETATE] | inactive
* O=Cc1ccc(CCl)cc1 | inactive
* CC(=O)OCC(OC(C)=O)C(OC(C)=O)C(/C=N\Nc1nc2ccccc2c(=O)[nH]1)=N\Nc1nc2ccccc2c(=O)[nH]1 (stereo unspecified) | inactive
* CCC12C=CCN3CCC4(C(=C(C(=O)OC)C1)Nc1ccccc14)[C@H]32 (stereo partly specified) | inactive
* CCOC(=O)NC(=O)c1cn(C2OC(COC(=O)CCCCCCCCC(=O)OCC3OC(n4cc(C(=O)NC(=O)OCC)c(=O)[nH]c4=O)C4OC(C)(C)OC34)C3OC(C)(C)OC32)c(=O)[nH]c1=O (stereo unspecified) | inactive
* COC(=O)c1c2n(c3ccccc13)C[C@H]1OC(C)(C)O[C@@H]21 | inactive
* CC(=O)NC(C)(C)C1CCC(C)CC1 (stereo unspecified) | inactive
* O=C(O)C1CCCN(CCc2c[nH]c3ccccc23)C1 (stereo unspecified) | inactive
* C(=N/c1ccccc1C1SCCCS1)/c1ccccc1 | inactive

====

Tested on: NCI-H460
Test: NCI tumour cell line growth inhibition, 48 h
Activity calls are given as the source filed them. Cut-off read from the data, not from the text of the source: active = GI50 up to about 1.1 µM and inactive = higher.
Parameter: GI50. Scope: all listed entries.
OBSERVABLE: GI50

• Cc1ccc(C)c2sc3cc(=O)ccc-3nc12 = 34.2 µM (inactive)
• CCC(=O)N/N=C(\C=C\c1cccc(O)c1)c1sc(Nc2ccc(C)cc2[N+](=O)[O-])nc1C = > 100 µM (inactive)
• O=c1oc(-c2ccc(O)cc2)cc2cc(O)ccc12 = 22.6 µM (inactive)
• COCCN(CCOC)C(=O)COc1c2cc(C(C)(C)C)cc1Cc1cc(C(C)(C)C)cc(c1OCC(=O)N(CCOC)CCOC)Cc1cc(C(C)(C)C)cc(c1OCC(=O)N(CCOC)CCOC)Cc1cc(C(C)(C)C)cc(c1OCC(=O)N(CCOC)CCOC)Cc1cc(C(C)(C)C)cc(c1OCC(=O)N(CCOC)CCOC)C2 = 1.12 µM (inactive)
• Cc1cccc2c1NC(=O)/C2=N\Nc1ccccc1[N+](=O)[O-] = 6.9 µM (inactive)
• CCOC(=O)C1=C(Nc2ccc(Br)cc2)OC/C1=N\NC(=O)c1ccccc1O = 12.9 µM (inactive)
• N#C/C(=C\c1ccc2[nH]ccc2c1)C(=O)c1ccc(O)c(O)c1 = 37 µM (inactive)
• COc1ccc(C(SC2C(O)C(CO)OC2n2ccc(N)nc2=O)(c2ccccc2)c2ccc(OC)cc2)cc1 (stereo not drawn) = 12.1 µM (inactive)

====

Test system: NCI-H460
Test: NCI tumour cell line growth inhibition, 48 h
The source made the active and inactive calls. Rule as the data show it: active = GI50 up to about 1.1 µM and inactive = higher.
Classes used: active, inactive

- N#CC(c1ccccc1)N(CCCCCCN(C(=O)c1ccccc1)C(C#N)c1ccccc1)C(=O)c1ccccc1 (stereo not given): inactive
- CCCCCCC(/C=N/O)C(C)(O)CCC (stereo not given): inactive
- O=C1c2ccccc2CN1c1ccc(OCCN2CCCCC2)cc1: inactive
- C[C@H]1CCC/C=C/[C@@H]2C[C@H](OC(=O)CN(C)C)C[C@H]2[C@H](O)/C=C/C(=O)O1: active
- O=C(O)c1ccccc1NC(c1ccccc1)c1ccc2cccnc2c1O (stereo not given): inactive
- CCOc1ccc(N/C(=C(/C(Cl)=C(/Cl)NCCO)[N+](=O)[O-])n2nnc3ccccc32)cc1: inactive
- COc1ccc2c(c1)CC1C3(CCCCC23)CC[N+]1(C)C (stereo not given): inactive
- CCCn1c(C23CC4CC(CC(C4)C2)C3)nc2ccc(Cl)cc2c1=O: inactive
- c1cc(CNCCN2CCNCC2)ccn1: inactive
- COc1cc2cc(C(=O)N3CC(CCl)c4c3cc([N+](C)(C)Cc3ccc([N+](=O)[O-])n3C)c3ccccc43)[nH]c2c(OC)c1OC (stereo not given): active

====

// GI50 collected for HCT-15
OBSERVABLE: GI50 (µM)

- Cc1cccc(NC(=O)C(=O)C(C(=O)c2ccc3ccccc3c2)C2OC(=O)c3ccccc32)c1C (stereo not given): 15.5
- COc1ccc(-c2nnc(-c3nsc4ccccc34)o2)cc1: 31.6
- CCC12C=CCN3CCC4(c5cc(C6(C(=O)OC)CCCCCc7c6[nH]c6ccccc76)c(OC)cc5N(C)C4C(O)(C(=O)OC)C1OC(C)=O)C32 (stereo not given): 2.1
- ClC1(Cl)C(c2ccccc2)C1c1ccccc1 (stereo not given): 21.6
- COc1cc(/C=N\O[Si](C)(C)C(C)(C)C)ccc1O[Si](C)(C)C(C)(C)C: 27.4
- O=C(NCC(=O)N1CCCC1C(=O)OC(=O)C1CCCN1C(=O)CNC(=O)OCc1ccccc1)OCc1ccccc1 (stereo not given): 38.8
- N#Cc1c2ccc([N+](=O)[O-])cc2c(=O)n2c1[nH]c1ccc(C(F)(F)F)cc12: 16.1
- Cc1c2cc[n+](C)cc2c(C)c2c1[nH]c1ccc(O)cc12 [ELLIPTINIUM ACETATE]: 50.4
- Cc1cnc2nc(-c3sccc3C)cc(O)c2c1: 1.57
